// provenance: patent US20060270831A1

Overview of reported EC50 (nM), bioassay (Ba/F3-huEPOR cell proliferation) across a group of binders:
# tgt: T1, human erythropoietin receptor on Ba/F3-huEPOR cells (human, UniProt P19235 25-508)
# T1 sequence (looked up): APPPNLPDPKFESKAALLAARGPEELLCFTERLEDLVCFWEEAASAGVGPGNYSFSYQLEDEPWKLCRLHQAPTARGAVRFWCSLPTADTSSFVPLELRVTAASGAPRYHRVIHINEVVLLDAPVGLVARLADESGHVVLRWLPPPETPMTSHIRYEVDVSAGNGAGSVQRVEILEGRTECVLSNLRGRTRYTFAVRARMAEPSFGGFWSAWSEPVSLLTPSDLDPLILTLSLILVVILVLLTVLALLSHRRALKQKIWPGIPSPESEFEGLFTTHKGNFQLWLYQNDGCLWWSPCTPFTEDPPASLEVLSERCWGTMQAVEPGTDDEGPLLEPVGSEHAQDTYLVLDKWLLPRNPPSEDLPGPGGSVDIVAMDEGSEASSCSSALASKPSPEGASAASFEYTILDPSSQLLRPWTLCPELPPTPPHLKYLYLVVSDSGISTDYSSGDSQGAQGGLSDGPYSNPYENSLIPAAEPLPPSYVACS
# assay.remarks: cell-based or functional assay
Bridge positions count the residues as written; N and C are the ends. Square brackets hold non-standard residues; d marks the D form. Ends that are not written are not given here. I, II: the chains in the order shown. 1Nal = N[C@@H](Cc1cccc2ccccc12)C(=O)O
Reply with just the number (in nM).

Worked cases, answers included:
binder | number
GGTYSCHFGPLT[1Nal]VCRPQGG (cysteine pairing not given here; also: dimer: two identical chains joined at C-termini through a lysine amide linker) | 6
Peptide dimer of Example 7, Code No. 17286 (R1 = R2 = GGTYSCHFGPLTBVCRPQGG, n1 = 1, n2 = 0, lysine linker, intramolecular disulfide in each chain) (disulfide I:6-I:15, II:6-II:15; not fully specified (C-terminus); also: dimer: C-termini joined by lysine linker, R1 through βAla, R2 directly, which chain is R1 not given here) peptide 1: GGTYSCHFGPLT[1Nal]VCRPQGG peptide 2: GGTYSCHFGPLT[1Nal]VCRPQGG | 0.4
GGTYSCHFGPLT[1Nal]VCRPQGG (not fully specified (C-terminus); cysteine pairing not given here; also: homodimer: C-termini joined via beta-alanine to a lysine linker) | 5

Let us move to another entry and its EC50 (nM), bioassay (Ba/F3-huEPOR cell proliferation).
-- ask Give its EC50 (nM), bioassay (Ba/F3-huEPOR cell proliferation) value. Item: Peptide dimer of Example 10, Code No. 17644 (R1 = R2 = GGTYSCHFGPLTBVCRPQGG, both N-termini acetylated, n1 = 1, n2 = 0, lysine linker) (cysteine pairing not given here; also: dimer: C-termini joined through lysine linker, one chain (R1) via a beta-alanine, the other (R2) directly) peptide 1: Ac-GGTYSCHFGPLT[1Nal]VCRPQGG peptide 2: Ac-GGTYSCHFGPLT[1Nal]VCRPQGG
-- reply 5
